The reported measurements were obtained from patent US20190338002A1.

- Tested On: T1, human alpha CGRP (SEQ ID NO: 80) (human, not fully specified)
- T1 peptide: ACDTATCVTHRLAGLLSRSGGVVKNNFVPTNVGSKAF
- Assay Explanation: cell-based or functional assay
Assay Endpoint: cAMP assay IC50, SK-N-MC cells (nM)
Answers are plain numbers, in nM.

Recorded results for 2 binders are shown here.
[[record]]
binder = "cysteine-free lipocalin mutein SEQ ID NO: 37 (designed binder, biotinylated by NHS chemistry for capture in SPR) QDSTSDLIPAPPLSKVPLQQNFQDNQFQGKWYVVGWAGNTLLREDKDPIKMQAMIYELKEDKSYNVTWVYFADKKNNYHIETFVPGSQPGEFTLGTIKSYPGETPILVRVVSTNYNQHAMVFFKGVNQNREIFEIVLYGRTKELTNELKENFIRFSKSLGLPENHIVFPVPIDQLIDGSAWSHPQFEK"
unit_name = "nM"
observed_value = 0.16

[[record]]
binder = "cysteine-free lipocalin mutein SEQ ID NO: 31 (designed binder, biotinylated by NHS chemistry for capture in SPR) QDSTSDLIPAPPLSKVPLQQNFQDNQFQGKWYVVGWAGNTLLREDKDPIKMQAMIYELKEDKSYNVTWVYFADKKRNYHIETFVPGSQPGEFTLGTIKSYPGETPILVRVVSTNYNQHAMVFFKGVNQNREIFEIVLYGRTKELTNELKENFIRFSKSLGLPENHIVFPVPIDQFIDGSAWSHPQFEK"
unit_name = "nM"
observed_value = 0.19


// next entry
Which cAMP assay IC50, SK-N-MC cells value belongs to cysteine-free lipocalin mutein SEQ ID NO: 33 (designed binder, biotinylated by NHS chemistry for capture in SPR) QDSTSDLIPAPPLSKVPLQQNFQDNQFQGKWYVVGWAGNTLLREDKDPIKMQAMIYELKEDKSYNVTWVYFADKKLNYHIETFVPGSQPGEFTLGTIKSYPGETPILVRVVSTNYNQHAMVFFKGVNQNREIFEIVLYGRTKELTNELKENFIRFSKSLGLPENHIVFPVPIDQWIDGSAWSHPQFEK ?
0.14
